# target: T1, MBD-Halo-AF660 (Homo sapiens, UniProt Q9UIS9 1-77)
# T1 sequence: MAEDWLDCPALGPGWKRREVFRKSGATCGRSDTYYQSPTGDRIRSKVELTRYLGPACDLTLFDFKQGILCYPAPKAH
# method notes: single-molecule TIRF
assay metric: binding result

M7-A39O-CP (mixed, 5mC strand 1: 21,29,31,39,42,44,53) DNA 1: GTCTTCCTGCTGATGCAATCCGCTAGGTCGCGAGTCTCCGCCGCGAGAGGGCCGG DNA 2: CTTATCTGTTCCGGCCCTCTCGCGGCGGAGACTCGCGACCTAGCGGATT DNA 3: GCATCAGCAGGAAGAC	no binding
M7-A39-CP (dsDNA, 5mC strand 1: 21,29,31,39,42,44,53) DNA 1: GTCTTCCTGCTGATGCAATCCGCTAGGTCGCGAGTCTCCGCCGCGAGAGGGCCGG DNA 2: CCGGCCCTCTCGCGGCGGAGACTCGCGACCTAGCGGATT DNA 3: GCATCAGCAGGAAGAC	no binding
